assay: Metabolic stability in human liver S9 fraction assessed as half life at 1 uM incubated for 60 min by LC-MS/MS method; format: ADME, subcellular
Quick list: log10 of half-life at 1 µM per entry.
Recorded half-life at 1 µM (log10, min)

| INPUT SMILES | log10 of half-life at 1 µM |
| --- | --- |
| CC(=O)OCCCCC(=O)O[C@@H]1CC[C@@]2(C)[C@@H](CC[C@@H]3[C@@H]2CC[C@]2(C)[C@@H](C(C)=O)CC[C@@H]32)C1 | -0.10 |
| CCCCCCCC(=O)O[C@@H]1CC[C@@]2(C)[C@@H](CC[C@@H]3[C@@H]2CC[C@]2(C)[C@@H](C(C)=O)CC[C@@H]32)C1 | 1.54 |
| CC(=O)[C@H]1CC[C@H]2[C@@H]3CC[C@H]4C[C@H](OC(=O)OCCOC(=O)C(C)C)CC[C@]4(C)[C@H]3CC[C@]12C | 0.40 |
| CC(=O)[C@H]1CC[C@H]2[C@@H]3CC[C@H]4C[C@H](OC(=O)CC5CCCC5)CC[C@]4(C)[C@H]3CC[C@]12C | 1.40 |
| CC(=O)[C@H]1CC[C@H]2[C@@H]3CC[C@H]4C[C@H](OC(=O)N(C)CCOC(=O)C(C)C)CC[C@]4(C)[C@H]3CC[C@]12C | -0.05 |

Ask: Which measured log10 of half-life at 1 µM value corresponds to CC(=O)[C@H]1CC[C@H]2[C@@H]3CC[C@H]4C[C@H](OC(=O)OCc5oc(=O)oc5C)CC[C@]4(C)[C@H]3CC[C@]12C ?
Reply: 0.08

Ask: Which measured log10 of half-life at 1 µM value corresponds to CCCCOC(=O)O[C@@H]1CC[C@@]2(C)[C@@H](CC[C@@H]3[C@@H]2CC[C@]2(C)[C@@H](C(C)=O)CC[C@@H]32)C1 ?
Reply: 0.20

Ask: Which measured log10 of half-life at 1 µM value corresponds to CC(=O)[C@H]1CC[C@H]2[C@@H]3CC[C@H]4C[C@H](OC(=O)CCCOC(=O)C(C)C)CC[C@]4(C)[C@H]3CC[C@]12C ?
Reply: 0.08

----------
Quick list: half-life at 1 µM per entry.
experiment: Metabolic stability in human plasma assessed as half life at 1 uM incubated for 60 min by LC-MS/MS method; assay type: ADME, cell-free

# example entries with known answers
| MOLECULE | PROPERTY | RESULT |
| --- | --- | --- |
| CCCCCC(=O)O[C@@H]1CC[C@@]2(C)[C@@H](CC[C@@H]3[C@@H]2CC[C@]2(C)[C@@H](C(C)=O)CC[C@@H]32)C1 | half-life at 1 µM | > 5 h |
| CC(=O)[C@H]1CC[C@H]2[C@@H]3CC[C@H]4C[C@H](OC(=O)NCCOC(=O)C(C)C)CC[C@]4(C)[C@H]3CC[C@]12C | half-life at 1 µM | 4.82 h |
| CC(=O)OCCCC(=O)O[C@@H]1CC[C@@]2(C)[C@@H](CC[C@@H]3[C@@H]2CC[C@]2(C)[C@@H](C(C)=O)CC[C@@H]32)C1 | half-life at 1 µM | 2.93 h |

Now, please, on to the next molecule.
Ask: Which measured half-life at 1 µM value corresponds to COC(=O)N(C)CCOC(=O)O[C@@H]1CC[C@@]2(C)[C@@H](CC[C@@H]3[C@@H]2CC[C@]2(C)[C@@H](C(C)=O)CC[C@@H]32)C1 ?
Reply: 4.82 h

----------
assay: Cmax in beagle dog at 5 mg/kg, IM administered for 30 mins measured after 24 hrs post dose by LC-MS/MS analysis; format: ADME, organism-based, Canis lupus familiaris; design: time 24.5 hrs, dose 5 mg/kg, route im; conditions: in vivo
PROPERTY: Cmax (ng/mL)
Kindly answer with a numeric value in ng/mL, unit omitted.

Ask: Which measured Cmax value corresponds to CC(=O)[C@H]1CC[C@H]2[C@@H]3CC[C@H]4C[C@H](OC(=O)OCCOC(=O)C(C)C)CC[C@]4(C)[C@H]3CC[C@]12C ?
Reply: 31.4

----------
Quick list: half-life at 1 µM per entry.
experiment: Metabolic stability in Sprague-Dawley rat liver S9 fraction assessed as half life at 1 uM incubated for 60 min by LC-MS/MS method; assay type: ADME, subcellular
Kindly answer with a numeric value in min, unit omitted.

| INPUT SMILES | UNIT DESCRIPTOR | half-life at 1 µM |
| --- | --- | --- |
| CC(=O)[C@H]1CC[C@H]2[C@@H]3CC[C@H]4C[C@H](OC(=O)CCCOC(=O)C(C)C)CC[C@]4(C)[C@H]3CC[C@]12C | min | 1.1 |
| CCCCOC(=O)O[C@@H]1CC[C@@]2(C)[C@@H](CC[C@@H]3[C@@H]2CC[C@]2(C)[C@@H](C(C)=O)CC[C@@H]32)C1 | min | 16 |

Now, please, on to the next compound.
Ask: Which measured half-life at 1 µM value corresponds to CCCCCC(=O)O[C@@H]1CC[C@@]2(C)[C@@H](CC[C@@H]3[C@@H]2CC[C@]2(C)[C@@H](C(C)=O)CC[C@@H]32)C1 ?
Reply: 4.7

----------
assay: Metabolic stability in beagle dog liver S9 fraction assessed as half life at 1 uM incubated for 60 min by LC-MS/MS method; format: ADME, subcellular, Canis lupus familiaris
PROPERTY: half-life at 1 µM (min)
Kindly answer with a numeric value in min, unit omitted.

| MOLECULE | half-life at 1 µM / min |
| --- | --- |
| CCCCOC(=O)O[C@@H]1CC[C@@]2(C)[C@@H](CC[C@@H]3[C@@H]2CC[C@]2(C)[C@@H](C(C)=O)CC[C@@H]32)C1 | 1.5 |

Ask: Which measured half-life at 1 µM value corresponds to CC(=O)OCCCC(C)C(=O)O[C@@H]1CC[C@@]2(C)[C@@H](CC[C@@H]3[C@@H]2CC[C@]2(C)[C@@H](C(C)=O)CC[C@@H]32)C1 (some centres not stated) ?
Reply: 1

Ask: Which measured half-life at 1 µM value corresponds to CC(=O)[C@H]1CC[C@H]2[C@@H]3CC[C@H]4C[C@H](OC(=O)CCCOC(=O)C(C)C)CC[C@]4(C)[C@H]3CC[C@]12C ?
Reply: 1.9

Ask: Which measured half-life at 1 µM value corresponds to CC(=O)[C@H]1CC[C@H]2[C@@H]3CC[C@H]4C[C@H](OC(=O)OCc5oc(=O)oc5C)CC[C@]4(C)[C@H]3CC[C@]12C ?
Reply: 2.3

Ask: Which measured half-life at 1 µM value corresponds to CC(=O)[C@H]1CC[C@H]2[C@@H]3CC[C@H]4C[C@H](OC(=O)OCCOC(=O)C(C)C)CC[C@]4(C)[C@H]3CC[C@]12C ?
Reply: 2.5

Ask: Which measured half-life at 1 µM value corresponds to CC(=O)OCCCCC(=O)O[C@@H]1CC[C@@]2(C)[C@@H](CC[C@@H]3[C@@H]2CC[C@]2(C)[C@@H](C(C)=O)CC[C@@H]32)C1 ?
Reply: 1

Ask: Which measured half-life at 1 µM value corresponds to CC(=O)[C@H]1CC[C@H]2[C@@H]3CC[C@H]4C[C@H](OC(=O)N(C)CCOC(=O)C(C)C)CC[C@]4(C)[C@H]3CC[C@]12C ?
Reply: 1.8

----------
Quick list: AUC(0-t) at 24.5 h per entry.
test: AUClast in Sprague-Dawley rat at 1 mg/kg, IV administered for 30 mins measured after 24 hrs post dose by LC-MS/MS analysis; type: ADME, organism-based; set-up: dose 1 mg/kg, time 24.5 hrs, route iv; conditions: in vivo
Kindly answer with a numeric value in ng·h/mL, unit omitted.

| INPUT SMILES | UNIT DESCRIPTOR | AUC(0-t) at 24.5 h |
| --- | --- | --- |
| CC(=O)[C@H]1CC[C@H]2[C@@H]3CC[C@H]4C[C@H](OC(=O)OCCOC(=O)C(C)C)CC[C@]4(C)[C@H]3CC[C@]12C | ng·h/mL | 9.03 |

Now, please, on to the next compound.
Ask: Which measured AUC(0-t) at 24.5 h value corresponds to CC(=O)[C@H]1CC[C@H]2[C@@H]3CC[C@H]4C[C@H](OC(=O)OCc5oc(=O)oc5C)CC[C@]4(C)[C@H]3CC[C@]12C ?
Reply: 38.6

----------
test: Cmax in Sprague-Dawley rat at 5 mg/kg, IM administered for 30 mins measured after 24 hrs post dose by LC-MS/MS analysis; format: ADME, organism-based; parameters: time 24.5 hrs, dose 5 mg/kg, route im; conditions: in vivo
PROPERTY: Cmax (ng/mL)
Kindly answer with a numeric value in ng/mL, unit omitted.

Ask: Which measured Cmax value corresponds to CCCCCC(=O)O[C@@H]1CC[C@@]2(C)[C@@H](CC[C@@H]3[C@@H]2CC[C@]2(C)[C@@H](C(C)=O)CC[C@@H]32)C1 ?
Reply: 130
